Recorded values, source PubChem BioAssay (NCATS).

- STUDY_SYSTEM: Rap guanine nucleotide exchange factor 3 (Homo sapiens) (UniProt O95398)
- Sequence (O95398 whole entry, looked up): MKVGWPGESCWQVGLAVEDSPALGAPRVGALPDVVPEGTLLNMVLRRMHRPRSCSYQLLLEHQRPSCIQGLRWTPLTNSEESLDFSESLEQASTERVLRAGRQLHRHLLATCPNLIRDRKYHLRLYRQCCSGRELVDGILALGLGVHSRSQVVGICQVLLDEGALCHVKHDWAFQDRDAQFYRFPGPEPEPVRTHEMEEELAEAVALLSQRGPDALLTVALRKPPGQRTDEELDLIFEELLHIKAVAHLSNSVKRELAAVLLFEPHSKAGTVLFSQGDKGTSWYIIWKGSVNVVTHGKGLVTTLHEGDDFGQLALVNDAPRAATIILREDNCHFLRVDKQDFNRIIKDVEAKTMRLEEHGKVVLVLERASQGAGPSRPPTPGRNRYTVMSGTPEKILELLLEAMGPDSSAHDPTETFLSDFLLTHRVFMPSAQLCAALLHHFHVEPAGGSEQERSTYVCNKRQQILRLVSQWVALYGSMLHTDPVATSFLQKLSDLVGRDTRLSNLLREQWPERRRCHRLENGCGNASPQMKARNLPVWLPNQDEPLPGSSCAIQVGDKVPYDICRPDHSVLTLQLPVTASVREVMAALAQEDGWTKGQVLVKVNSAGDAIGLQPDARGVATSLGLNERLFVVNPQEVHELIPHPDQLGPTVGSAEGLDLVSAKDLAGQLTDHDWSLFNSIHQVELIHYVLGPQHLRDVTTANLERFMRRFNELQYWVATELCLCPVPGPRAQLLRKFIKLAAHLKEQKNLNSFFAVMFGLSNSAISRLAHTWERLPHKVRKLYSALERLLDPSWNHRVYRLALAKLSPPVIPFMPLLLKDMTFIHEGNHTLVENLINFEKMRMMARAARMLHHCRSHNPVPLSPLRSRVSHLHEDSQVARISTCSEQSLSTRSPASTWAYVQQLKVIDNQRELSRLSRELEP
- PROCEDURE_DETAILS: Confirmatory qHTS for antagonist of cAMP-regulated guanine nucleotide exchange factor 3 (EPAC1) (AID 1645880); note: nearly all actives have a fitted effect of over 55% in size
- TEST_CONDITIONS: EPAC1 Rap1B-BODIPY-GDP exchange, fluorescence; series mostly up to 115 µM
Records with an inconclusive call do not appear. Activity calls are given as the source filed them. Calls come from the whole dose curve; as a rule, active = well fitted inhibition curve with a large enough effect; inconclusive = small, poorly fitted or top-dose-only effect; inactive = no such curve, though single readings can be large or run the other way.
# output must be one of active, inactive

Examples from the recorded data:
• CCc1ccc(S(=O)(=O)Nc2cc3c(cc2C)n(C)c(=O)n3C)cc1 = inactive
• CCOC(=O)C1=C(N)OC2=C(C(=O)CC(C)(C)C2)C1c1ccc(CC)s1 (centres undefined) = inactive
• O=C(O)CN1C(=O)/C(=C\c2cc(Br)ccc2OCc2ccccc2F)SC1=S = active
• COc1ccc(S(=O)(=O)N2CCCC2)cc1C(C)C = inactive

Query :: Could you check what this test reported for "COc1ccc(Br)cc1CN(C)C(=O)c1ccccc1OCc1c(C)noc1C" ?
Result :: inactive

Query :: Lab log entry: "Cc1ccc(N(Cc2cccs2)C(=O)c2ccccc2[N+](=O)[O-])cc1" — outcome as called in the assay?
Result :: inactive

Query :: Tell me the assay call for Cc1ccc(NC(=O)c2ccc(CN3CC(=O)N4CCCCC4C3=O)cc2)c(C)c1 (centres undefined) please.
Result :: inactive

Query :: How did this test come out for "CN(CCC#N)C(=O)COC(=O)c1c2c(nc3ccccc13)/C(=C/c1ccco1)CC2" ?
Result :: active

Query :: Tell me the assay call for CC1(C(=O)NS(=O)(=O)c2cccs2)CCN1C(=O)C1(c2ccc(Cl)cc2)CCC1 (centres undefined) please.
Result :: active

====

- STUDY_SYSTEM: Rap guanine nucleotide exchange factor 3 (Homo sapiens) (UniProt O95398)
- PROCEDURE_DETAILS: Confirmatory qHTS for antagonist of cAMP-regulated guanine nucleotide exchange factor 3 (EPAC1) (AID 1645880); note: nearly all actives have a fitted effect of over 55% in size
- TEST_CONDITIONS: EPAC1 Rap1B-BODIPY-GDP exchange, fluorescence; series mostly up to 115 µM
Results filed as inconclusive are left out. Calls of active or inactive are those of the source. Calls come from the whole dose curve; as a rule, active = well fitted inhibition curve with a large enough effect; inconclusive = small, poorly fitted or top-dose-only effect; inactive = no such curve, though single readings can be large or run the other way.
Bench note: report the call from 1.0 (active), 0.0 (inactive)

* CN1C(=O)C2(C(C#N)=C(N)N(c3cc(Cl)cc(Cl)c3)C3=C2C(=O)CC(C)(C)C3)c2ccccc21 (stereo not drawn) | 0.0
* O=C(O)c1ccc(S(=O)(=O)/N=C2\C=C(Nc3ccccc3F)C(=O)c3ccccc32)cc1 | 1.0
* O=C(O)COc1ccc(NC(=O)C(c2ccccc2)c2ccccc2)cc1 | 0.0

Query :: I'd appreciate the recorded outcome for CCCCC1=CC2=CC(=O)C(C)(OC(=O)C3CCCC3)C(=O)C2=CO1 (stereo not drawn) from this test.
Result :: 1.0

Query :: // outcome(item) with item = "COc1ccc(CCn2c(=N)c(S(=O)(=O)c3ccc(C)cc3)cc3c(=O)n4ccccc4nc32)cc1"
Result :: 1.0

Query :: For this compound, state the assay outcome: "CC(C)Sc1nc2sccc2c(=O)n1-c1ccccc1"
Result :: 0.0

Query :: Give the logged outcome of this assay for the following compound: "COc1ccccc1CCc1nnc(CCC(=O)N(C)Cc2cccc3ncccc23)o1"
Result :: 0.0

Query :: # outcome recorded in this test, key = CC1=C(C(=O)OC2CCCC2)C(c2c(Cl)cccc2Cl)CC(=O)N1 (stereo not drawn)
Result :: 0.0

Query :: Which outcome was assigned to "CCOC(=O)c1cnc2ccccc2c1Nc1cccc(OC)c1" in this test?
Result :: 0.0

Query :: Assay outcome for "CC(C)(C)C(=O)Nc1ccc2nc(SCC(=O)N3CCc4ccccc43)sc2c1" : what was it?
Result :: 0.0

Query :: # fetch the recorded call for "CCc1ccc([C@@H]2CC=C(C(=O)O)[C@H](c3ccc(Br)cc3)N2S(=O)(=O)c2ccc(C)cc2)cc1" here
Result :: 1.0

Query :: Field: outcome | Entry: "CSc1ccccc1NC(=O)COc1ccccc1C"
Result :: 0.0

Query :: Which outcome did this test record for the compound N#CC(C(=O)NCc1ccco1)c1nc2ccccc2nc1N1CCOCC1 (stereo not drawn) ?
Result :: 0.0

Query :: GET /call?item= "Cc1ccc2c(c1)-c1c(c(C(=O)N3CCN(c4cc(C)ccc4C)CC3)nn1C)CS2" returns the recorded outcome of this test.
Result :: 0.0

Query :: Hi, do you know how "CSC1=NC2(CCN(C(=O)NC3CCCCC3)CC2)N=C1c1ccc(C)cc1" came out in this test?
Result :: 0.0

Query :: Dear colleague, could you share the recorded outcome for "COCCCn1c(=O)/c(=C\c2ccc(OC(F)F)c(OC)c2)s/c1=C(/C#N)C(N)=O" when you have a moment?
Result :: 0.0

Query :: Please let me know the test result on file for "Cc1ccc(-c2cc(C(=O)Nc3ccc4c(c3)OCCO4)c3ccccc3n2)cc1" .
Result :: 0.0

Query :: Please share the test call associated with "COc1ccc(C(=O)c2ccccc2)c2c(O)ccc(C(=O)c3ccccc3)c12" .
Result :: 0.0
